Where do these numbers come from? They come from patent US20230235012A1.

target: T1, human CTLA-4, full-length, expressed on transfected Expi293 cells (human, UniProt P16410 36-223); test: flow cytometry, 100 nM, Expi293 cells with human CTLA-4
T1 construct: whole, on cells
T1 sequence (P16410 36-223): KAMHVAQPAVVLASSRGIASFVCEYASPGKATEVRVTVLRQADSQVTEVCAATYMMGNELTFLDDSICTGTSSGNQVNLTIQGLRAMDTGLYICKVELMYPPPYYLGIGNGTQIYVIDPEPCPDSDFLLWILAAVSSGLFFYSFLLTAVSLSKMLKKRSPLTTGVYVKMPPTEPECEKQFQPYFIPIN
measurement_name: MFI (MFI)
Please respond with the number in MFI and leave the unit unwritten.

Data request: Tell me the measured MFI of variant ICOSL IgV-Fc fusion N52D/Q100S (Fc fusion) DTQEKEVRAMVGSDVELSCACPEGSRFDLNDVYVYWQTSESKTVVTYHIPQDSSLENVDSRYRNRALMSPAGMLRGDFSLRLFNVTPQDEQKFHCLVLSSSLGFQEVLSVEVTLHVAANFSVGSGGGGSEPKSSDKTHTCPPCPAPEAEGAPSVFLFPPKPKDTLMISRTPEVTCVVVDVSHEDPEVKFNWYVDGVEVHNAKTKPREEQYNSTYRVVSVLTVLHQDWLNGKEYKCKVSNKALPAPIEKTISKAKGQPREPQVYTLPPSREEMTKNQVSLTCLVKGFYPSDIAVEWESNGQPENNYKTTPPVLDSDGSFFLYSKLTVDKSRWQQGNVFSCSVMHEALHNHYTQKSLSLSPG , please.
Data returned: 333000
